Test system: ATF4
Assay: ATF4 expression inhibition assay (ATF4 5'UTR luciferase reporter, Tg-stressed HEK293T cells)
Type: cell-based, human
Details: Homo sapiens, HEK-293T, 3 h, 1 μM test compound, 100 nM thapsigargin, 3 hours, HEK293T ATF4 luciferase reporter; read-out: % ATF4 inhibition at 1 μM
Result type: inhibition at 1 µM (%)

compound=O=C(NN1CCN(C[C@H](O)COc2ccc(Cl)c(F)c2)CC1)c1ccc2cc(Cl)ccc2c1 unit_spec=% reported_measurement=86.6
compound="O=C(COc1ccc(Cl)c(F)c1)NC1CCN(NC(=O)C2CNc3cc(Cl)ccc3O2)CC1 (centres unmarked)" unit_spec=% reported_measurement=92.7
compound=O=C(COc1ccc(Cl)c(F)c1)NC1CCN(NC(=O)c2nc3cc(Cl)ccc3s2)CC1 unit_spec=% reported_measurement=86.8
compound=O=C(COc1ccc(Cl)c(F)c1)NN1CCC(NC(=O)c2nc3cc(Cl)ccc3s2)CC1 unit_spec=% reported_measurement=87.2
compound=O=C(NN1CCN(C[C@@H](O)COc2ccc(Cl)c(F)c2)CC1)c1ccc2cc(Cl)ccc2c1 unit_spec=% reported_measurement=94.6
compound="O=C(COc1ccc(Cl)c(F)c1)NC1CCN(NCC(O)COc2ccc(Cl)c(F)c2)CC1 (centres unmarked)" unit_spec=% reported_measurement=13.9
compound="O=C(COc1ccc(Cl)c(F)c1)NN1CCN(CC(O)COc2ccc(Cl)c(F)c2)CC1 (centres unmarked)" unit_spec=% reported_measurement=83.8
compound=O=C(NN1CCN(C[C@@H](O)COc2ccc(Cl)c(F)c2)CC1)c1ccc(C(F)(F)F)cn1 unit_spec=% reported_measurement=80.5

----------
Test system: ATF4
Test: ATF4 expression inhibition assay (ATF4 5'UTR luciferase reporter, Tg-stressed HEK293T cells)
Type: cell-based, human
Settings: Homo sapiens, HEK-293T, 3 h, read-out: % ATF4 inhibition at 100 nM
Label condition met when inhibition at 0.1 µM >= 70%; otherwise condition not met.

compound="O=C(NN1CCC(NCC(O)COc2ccc(Cl)c(F)c2)CC1)c1ccc2cc(Cl)ccc2n1 (centres unmarked)" assigned_category="condition not met"
compound=O=C(COc1ccc(Cl)c(F)c1)NN1CCN(C(=O)COc2ccc(Cl)c(F)c2)CC1 assigned_category="condition not met"
compound=O=C(NN1CCC(NC[C@@H](O)COc2ccc(Cl)c(F)c2)CC1)c1cc2cc(Cl)ccc2o1 assigned_category="condition met"
compound="O=C(COc1ccc(Cl)c(F)c1)NN1CCC(NCC(O)COc2ccc(Cl)c(F)c2)CC1 (centres unmarked)" assigned_category="condition not met"
compound=O=C(NN1CCC(NCCOc2ccc(Cl)c(F)c2)CC1)c1ccc2cc(Cl)ccc2n1 assigned_category="condition not met"
compound=O=C(NN1CCN(CCCOc2ccc(Cl)c(F)c2)CC1)c1cc2cc(Cl)ccc2o1 assigned_category="condition not met"
compound=O=C(COc1ccc(Cl)cc1)NC1CCN(NC(=O)COc2ccc(Cl)cc2)CC1 assigned_category="condition met"
compound=O=C(NN1CCC(NCCOc2ccc(Cl)c(F)c2)CC1)c1cc2cc(Cl)ccc2o1 assigned_category="condition met"
compound=O=C(NN1CCN(CCCOc2ccc(Cl)c(F)c2)CC1)c1ccc2cc(Cl)ccc2n1 assigned_category="condition not met"
compound="O=C(NN1CCN(CC(O)COc2ccc(Cl)c(F)c2)CC1)c1ccc2cc(Cl)ccc2n1 (centres unmarked)" assigned_category="condition met"

meta.source: patent US11166942B2
